# Tested on: SK-MEL-28 melanoma
# experiment summary: NCI tumour cell line growth inhibition, 48 h
measured property: GI50

# molecule, study system, assay value
records = [
    ("COc1cc(C2CC(c3ccc(Nc4nc(NCCO)nc(NCCO)n4)cc3)=NN2c2cc(Cl)cc(Cl)c2)cc(OC)c1OC (stereo not given)", "SK-MEL-28 melanoma", "1.53 µM"),
    ("CC1=NN(c2cccc(Cl)c2)C(=O)/C1=C\\c1cn(CC(O)CN2CCCCC2)c2ccccc12 (stereo not given)", "SK-MEL-28 melanoma", "1.82 µM"),
    ("COc1cc2c(cc1OCCNC(=O)/C=C1\\C[C@H]3C=Nc4cc(OCc5ccccc5)c(OC)cc4C(=O)N3C1)N=C[C@@H]1CCCN1C2=O", "SK-MEL-28 melanoma", "18.1 µM"),
    ("C[C@@]1(F)[C@H](O)[C@@H](CO)O[C@H]1n1ccc(=O)[nH]c1=O", "SK-MEL-28 melanoma", "> 100 µM"),
    ("CCOC(=O)Nc1ccc2nc(-c3cscn3)[nH]c2c1", "SK-MEL-28 melanoma", "7.23 µM"),
]
